- assay target: T1, CAT-212
- T1 construct: Human scFv; IMAC-purified soluble scFv in the Western blot and Flash Plate assays; FPLC-purified monomeric scFv in the chemotaxis assay
- T1 sequence (VH, as listed by the source limits assumed, chain 1 of 2): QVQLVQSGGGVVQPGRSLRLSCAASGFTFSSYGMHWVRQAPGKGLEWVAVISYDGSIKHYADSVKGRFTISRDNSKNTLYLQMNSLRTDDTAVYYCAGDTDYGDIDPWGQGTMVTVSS
- T1 sequence (VL, as listed by the source limits assumed, chain 2 of 2): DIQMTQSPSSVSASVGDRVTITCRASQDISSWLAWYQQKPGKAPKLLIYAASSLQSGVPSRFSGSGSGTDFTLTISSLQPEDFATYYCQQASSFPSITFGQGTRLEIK
- assay info: Flash Plate scintillation competition: unlabelled mouse eotaxin against [125I]eotaxin for coated CAT-212; mean of two estimates

binder	IC50 / nM
Mouse eotaxin (ligand, UniProt P48298 24-97, looked up, also called murine eotaxin) HPGSIPTSCCFIMTSKKIPNTLLKSYKRITNNRCTLKAIVFKTRLGKEICADPKKKWVQDATKHLDQKLQTPKP	296
